test system: RXF 393 renal; assay: NCI tumour cell line growth inhibition, 48 h; in the data active means GI50 below about 0.43 µM; inactive means the rest
Outcomes: active, inactive

[[record]]
molecule = "COc1cc(N2CCN(C(C)C)CC2)ccc1Nc1nc(Nc2cccc3ncccc23)c2cc[nH]c2n1"
class_name = "inactive"

[[record]]
molecule = "COc1cc2c(c(OC)c1OC)C(=O)CC(c1cccc(NC(=O)c3ccc(Br)cc3)c1)O2 (stereo not drawn)"
class_name = "inactive"

[[record]]
molecule = "O=C(COc1ccc(/C=C2\\Oc3ccccc3C2=O)cc1)Nc1nccs1"
class_name = "active"


----------
Readings of TGI for the listed compounds
test system: SK-OV-3 ovarian; experiment: NCI tumour cell line growth inhibition, 48 h
reported metric: TGI

[[record]]
compound = "NCCC(=O)N[C@H](Cc1cc(O)c(O)c(SCC(NC(=O)CC[C@H](N)C(=O)O)C(=O)NCC(=O)O)c1)C(=O)O (stereo not given in full)"
reading = "> 50 µM"

[[record]]
compound = "C#CCn1c(=O)ccn(/C(=C\\C(=O)OCC)C(=O)OCC)c1=O"
reading = "> 59.9 µM"

[[record]]
compound = "CNC(=O)CCNC(=O)CCC(=O)N(C)C"
reading = "> 100 µM"

[[record]]
compound = "CCOC(=O)c1cc(/C=C/C(C)=C/C(=O)OC)oc1-c1ccccc1"
reading = "> 100 µM"

[[record]]
compound = "C=C1CC(Cn2ccc(=O)[nH]c2=O)(c2ccc(-c3ccccc3)cc2)OC1=O (stereo not given)"
reading = "21.1 µM"

[[record]]
compound = "O=C1CSC(/C=C/c2ccccc2)N1c1ccc(-c2ccc(-n3c(-c4ccccc4)nc4ccccc4c3=O)cc2)cc1 (stereo not given)"
reading = "> 100 µM"

[[record]]
compound = "CC(N=C(N)N)C(=O)O (stereo not given)"
reading = "> 100 µM"

[[record]]
compound = "CC12CCC([C@H](N3CCOCC3)/C1=N\\OCCN1CCCC1)C2(C)C (stereo not given in full)"
reading = "> 100 µM"

[[record]]
compound = "COC(=O)C1=C(OC(=O)/C(=C/c2ccc(Cl)cc2Cl)c2ccc(Cl)cc2Cl)C(C(=O)OC)[C@@]2(O)[C@@H](C(=O)OC)[C@H](C)C[C@@H]1[C@@H]2C(=O)OC (stereo not given in full)"
reading = "> 100 µM"

[[record]]
compound = "O=c1[nH]c(=O)n(C2CC(O)C(CO)O2)cc1OCCc1ccccc1 (stereo not given)"
reading = "> 100 µM"

[[record]]
compound = "O=C(Cc1nc2ccccc2c(=O)n1-c1c(Cl)cccc1Cl)c1ccncc1"
reading = "> 100 µM"

[[record]]
compound = "N=Nc1c(OC(=O)Nc2ccccc2)[nH]c2ccccc12"
reading = "36.8 µM"

[[record]]
compound = "O=C(N/C(=C\\c1ccccc1[N+](=O)[O-])c1nc2ccccc2[nH]1)c1ccccc1"
reading = "> 100 µM"

[[record]]
compound = "NC(=O)c1cc(-c2ccncc2)cc(-c2ccccc2)c1N"
reading = "> 25 µM"

[[record]]
compound = "COc1ccc(C2=C(Cl)c3cc(OC)c(OC)cc3C2=O)cc1OC"
reading = "36.9 µM"

[[record]]
compound = "CCC[C@H](O)[C@@H](CNc1cc(NC(C)=O)nc(NC(C)=O)n1)N(Cc1ccccc1)Cc1ccccc1"
reading = "63.4 µM"

[[record]]
compound = "CCCCSN1C(=O)c2ccccc2C1=S"
reading = "> 100 µM"

[[record]]
compound = "O=C(CCN1CCOCC1)Nc1ccc(F)cc1F"
reading = "> 100 µM"

[[record]]
compound = "O=c1cc(CO)n(CCc2c[nH]c3ccccc23)cc1O"
reading = "> 100 µM"

[[record]]
compound = "OC(CC(CC(O)(C(F)(F)Cl)C(F)(F)Cl)=NNc1ccccc1)(C(F)(F)Cl)C(F)(F)Cl"
reading = "> 10 µM"

[[record]]
compound = "COc1cc(=O)oc(/C=C/C=O)c1C"
reading = "75.9 µM"

[[record]]
compound = "Cc1csc(/C=N/NC(=O)c2nnn(-c3ccnc4c(C(F)(F)F)cccc34)c2C)c1"
reading = "> 100 µM"

[[record]]
compound = "CSc1ccccc1P(c1ccccc1SC)c1ccccc1SC"
reading = "> 100 µM"

[[record]]
compound = "CC(C)(C)OC(=O)NC1CC=CCC1NC(=O)OC(C)(C)C (stereo not given)"
reading = "> 100 µM"

[[record]]
compound = "O=C1c2cccc3cc([N+](=O)[O-])cc(c23)C(=O)N1NC1=NCCN1"
reading = "> 100 µM"


The values you see were collected from PubChem BioAssay (NCI).
